B1: HDV Ribozyme (parent)
chain: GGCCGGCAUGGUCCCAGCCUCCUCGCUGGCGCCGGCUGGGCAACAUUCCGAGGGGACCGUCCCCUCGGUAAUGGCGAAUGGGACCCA

variants of: B1; test: self-cleavage, relative activity (ratio to wild type); higher = more cleavage; co-transcriptional
assay-readout: self-cleavage

| variant-key | self-cleavage |
| --- | --- |
| C21A G54A | 0.0437 |
| G2A G28C | 0.0415 |
| A78G G80C | 0.329 |
| G38A U79C | 0.161 |
| G2C G17U | 0.0784 |

Kindly give each listed record's self-cleavage.
1. C15A C49A
2. C15A U27G
3. G53A A71C
4. G25U G28A
5. C44G C48G
6. U60C C61U
7. U47G G55U

Found:
[0.974, 0.653, 0.623, 0, 0.575, 0.718, 1.07]
